system_name: Transcriptional activator Myb (Homo sapiens) (UniProt P10242)
Sequence (P10242 whole entry, looked up): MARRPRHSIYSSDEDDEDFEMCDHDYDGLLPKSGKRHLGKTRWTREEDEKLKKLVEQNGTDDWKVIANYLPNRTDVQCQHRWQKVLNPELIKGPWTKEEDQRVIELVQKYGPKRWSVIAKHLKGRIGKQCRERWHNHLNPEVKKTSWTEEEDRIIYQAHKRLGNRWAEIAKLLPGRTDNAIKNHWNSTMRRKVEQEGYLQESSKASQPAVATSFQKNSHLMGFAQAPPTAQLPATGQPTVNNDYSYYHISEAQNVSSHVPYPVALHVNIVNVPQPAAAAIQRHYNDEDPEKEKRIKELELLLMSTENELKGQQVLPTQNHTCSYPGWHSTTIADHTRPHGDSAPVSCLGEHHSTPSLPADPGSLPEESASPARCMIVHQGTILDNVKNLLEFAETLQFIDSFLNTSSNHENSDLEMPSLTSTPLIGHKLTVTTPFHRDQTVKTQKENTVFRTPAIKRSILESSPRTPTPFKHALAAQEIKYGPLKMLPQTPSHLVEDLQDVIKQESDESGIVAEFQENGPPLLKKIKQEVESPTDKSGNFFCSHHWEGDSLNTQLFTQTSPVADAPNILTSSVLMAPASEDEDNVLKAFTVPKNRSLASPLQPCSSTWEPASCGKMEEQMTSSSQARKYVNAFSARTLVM
protocol: ATG_Myb_CIS: Attagene CIS-FACTORIAL HepG2 Assay for human Myeloblastosis (Myb) Proto-Oncogene Transcription Factor (AID 2282986)
condition_summary: HepG2 Attagene CIS-FACTORIAL Myb reporter transcription; actives raise or lower the signal
Active and inactive are the calls of the source. Rule for the calls: active = hit-call score of the fitted dose curve at least 0.9, where 1 is the maximum; inactive = score below 0.9.
Outcome field: choose from true (1) = active, false (0) = inactive

A selection of reference data follows.
INSERT INTO assay_data (input_smiles, system_name, assigned_label) VALUES
  ('c1cc(-c2ccncc2)ccn1', 'Transcriptional activator Myb (Homo sapiens) (UniProt P10242)', 'false (0)'),
  ('COc1cccc2c1C(=O)c1c(O)c3c(c(O)c1C2=O)C[C@@](O)(C(=O)CO)C[C@@H]3O[C@H]1C[C@H](N)[C@H](O)[C@H](C)O1', 'Transcriptional activator Myb (Homo sapiens) (UniProt P10242)', 'false (0)');

Just curious, what result did COc1cc(-c2nc(NC(=O)c3cc4cc(C)cc(C)c4n3CC(=O)O)sc2CCC2CCCCC2)c(OC)cc1Cl get here?
true (1)

Look up the recorded call for C1CCC(SSC2CCCCC2)CC1 in this test.
false (0)

Query: recorded result category for CCOc1ccc2c(c1)C(C)=CC(C)(C)N2 in this test
true (1)

Please indicate how the test categorized CNC(=O)[C@H]1O[C@@H](n2cnc3c(NCc4cc(Cl)ccc4OCc4cc(C)no4)ncnc32)[C@H](O)[C@@H]1N .
false (0)

Dear colleague, could you share the recorded outcome for CC(=O)OCCOCCOCCOC(C)=O when you have a moment?
false (0)

For this compound, state the assay outcome: CN1CCN(Cc2cc(-c3ccc4[nH]c(=O)oc4c3)co2)[C@@H](c2ccc(F)cc2)C1
false (0)

Could you kindly confirm the outcome this assay logged for Cc1oc(-c2ccccc2)nc1CCOc1cccc2c1ccn2CCC(=O)O ?
false (0)

GET /call?item= CC=Cc1ccc(O)c(OC)c1 returns the recorded outcome of this test.
false (0)
